Just for reference, patent US20170002313A1 is where these values come from.

# target entity: UniProt P42345
# assay notes: In vitro kinase profile, PI3K alpha_MTOR score
# Format: biochemical
measured parameter: PI3K alpha_MTOR score: MTOR

COc1ccc(-c2ccc3c(N4CCOCC4)nc(N4C[C@@H](C)O[C@@H](C)C4)nc3n2)cc1CO = +++
COC(=O)Nc1ccc(-c2nc(N3CCOCC3)c3cnn(C4CCN(C(=O)OC)CC4)c3n2)cc1 = +++

----------
# target entity: mTOR (Homo sapiens)
# assay notes: In vitro kinase profile, PI3K alpha_MTOR score
# Format: biochemical
measured parameter: PI3K alpha_MTOR score: MTOR

Guide cases for PI3K alpha_MTOR score: MTOR, answers given:
CNC(=O)Nc1ccc(-c2nc(N3CC4CCC(C3)O4)c3cnn(C4CCC5(CC4)OCCO5)c3n2)cc1 = +++
COC(=O)Nc1ccc(-c2nc(N3CCOCC3)c3cnn(C4CCN(Cc5cccnc5)CC4)c3n2)cc1 = +++
CN(C)C1CCN(C(=O)c2ccc(NC(=O)Nc3ccc(-c4nc(N5CCOCC5)nc(N5CCOCC5)n4)cc3)cc2)CC1 = +++
Nc1cc(C(F)(F)F)c(-c2cc(N3CCOCC3)nc(N3CCOCC3)n2)cn1 = PI3K alpha+++_MTOR+++
COc1ccc(-c2ccc3c(N4CCOC[C@@H]4C)nc(N4CCOC[C@@H]4C)nc3n2)cc1CO = +++

# next molecule below
Prompt line: Fill in: PI3K alpha_MTOR score: MTOR of `COc1ncc(-c2ccc3nccc(-c4ccnnc4)c3c2)cc1NS(=O)(=O)c1ccc(F)cc1F` is ___
Response line: PI3K alpha+++_MTOR+++
